# Test system: Pseudomonas aeruginosa
# Experiment summary: Antibacterial activity against Pseudomonas aeruginosa ATCC 27853 assessed as inhibition of bacterial growth measured after 24 hrs incubation
# Format: functional
Assay metric: MIC
A complete answer gives the number followed by the unit.

Recorded MIC (compound `CCn1cc(C(=O)O)c(=O)c2cc(F)c(N3CCN(C(=O)/C(C#N)=C/c4cn(CCCN5CCOCC5)c5ccccc45)CC3)cc21` ): 1 µg/mL

Recorded MIC (compound `CCOC(=O)Cn1cc(/C=C(\C#N)C(=O)N2CCN(c3cc4c(cc3F)c(=O)c(C(=O)O)cn4Cc3ccccc3)CC2)c2ccccc21` ): 4 µg/mL

Recorded MIC (compound `C=CCn1cc(C(=O)O)c(=O)c2cc(F)c(N3CCN(C(=O)/C(C#N)=C/c4cn(CC(=O)OCC)c5ccccc45)CC3)cc21` ): 4 µg/mL

Recorded MIC (compound `CCn1cc(C(=O)O)c(=O)c2cc(F)c(N3CCN(C(=O)/C(C#N)=C/c4cn(Cc5ccc(C)cc5)c5ccccc45)CC3)cc21` ): 0.25 µg/mL

Recorded MIC (compound `CCCCCCn1cc(/C=C(\C#N)C(=O)N2CCN(c3cc4c(cc3F)c(=O)c(C(=O)O)cn4CC)CC2)c2ccccc21` ): 0.5 µg/mL

Recorded MIC (compound `CCn1cc(C(=O)O)c(=O)c2cc(F)c(N3CCN(C(=O)/C(C#N)=C/c4cn(Cc5cccc(F)c5)c5ccccc45)CC3)cc21` ): 1 µg/mL

Recorded MIC (compound `CCn1cc(C(=O)O)c(=O)c2cc(F)c(N3CCN(C(=O)/C(C#N)=C/c4c[nH]c5cc(C)ccc45)CC3)cc21` ): 2 µg/mL

Recorded MIC (compound `CCn1cc(C(=O)O)c(=O)c2cc(F)c(N3CCN(C(=O)/C(C#N)=C/c4c[nH]c5ccc(Cl)cc45)CC3)cc21` ): 0.25 µg/mL

Recorded MIC (compound `CCn1cc(/C=C(\C#N)C(=O)N2CCN(c3cc4c(cc3F)c(=O)c(C(=O)O)cn4CC)CC2)c2ccccc21` ): 1 µg/mL

Recorded MIC (compound `CCCn1cc(/C=C(\C#N)C(=O)N2CCN(c3cc4c(cc3F)c(=O)c(C(=O)O)cn4CC)CC2)c2ccccc21` ): 1 µg/mL

Recorded MIC (compound `CCn1cc(C(=O)O)c(=O)c2cc(F)c(N3CCN(C(=O)/C(C#N)=C/c4cn(CC5CCCCC5)c5ccccc45)CC3)cc21` ): 1 µg/mL

Recorded MIC (compound `CCn1cc(C(=O)O)c(=O)c2cc(F)c(N3CCN(C(=O)/C(C#N)=C/c4cn(Cc5ccccc5F)c5ccccc45)CC3)cc21` ): 0.5 µg/mL

Recorded MIC (compound `CCn1cc(C(=O)O)c(=O)c2cc(F)c(N3CCN(C(=O)/C(C#N)=C/c4cn(CC5CCCC5)c5ccccc45)CC3)cc21` ): 1 µg/mL

Recorded MIC (compound `CCCCCCn1cc(C(=O)O)c(=O)c2cc(F)c(N3CCN(C(=O)/C(C#N)=C/c4cn(CC(=O)OCC)c5ccccc45)CC3)cc21` ): 16 µg/mL

Recorded MIC (compound `CCn1cc(C(=O)O)c(=O)c2cc(F)c(N3CCN(C(=O)/C(C#N)=C/c4c[nH]c5cccc(Cl)c45)CC3)cc21` ): 1 µg/mL

Recorded MIC (compound `CCOC(=O)Cn1cc(/C=C(\C#N)C(=O)N2CCN(c3cc4c(cc3F)c(=O)c(C(=O)O)cn4CC)CC2)c2ccccc21` ): 0.5 µg/mL
